Recorded AC50 by entry
- assay-system: UniProt:P55789
- assay-comment: ALR-catalysed DTT oxidation blockers – biochemical, H2O2 detection, luminescence, cherry-pick, dose response (AID 493248)
Calls of active or inactive are those of the source.

Answered examples (3):
COc1ccc2nc(Nc3ccccc3OC)sc2c1 : 1.71 µM (active)
CN(C)c1nc(Oc2ccc(/C=N/O)cc2)nc(N(C)C)n1 : 0.156 µM (active)
Cc1cccc(Nc2ncnc3[nH]cnc23)c1 : 75.3 µM (active)

// query Return AC50 (reported value) for this compound: O=C(NCc1ccccn1)C(=O)NCC(c1ccco1)N1CCN(c2ccc(F)cc2)CC1 (configuration not stated)
// result 13.2 µM (active)

// query Return AC50 (reported value) for this compound: `CC(=O)Nc1ccc(N2CCCCC2)cc1`
// result 2.96 µM (active)

// query Return AC50 (reported value) for this compound: `Cc1ccc(-c2csc(N)n2)s1`
// result 0.732 µM (active)

// query Return AC50 (reported value) for this compound: `CC(=O)Nc1ccc(-n2cc(-c3ccccc3)[nH]c2=S)cc1`
// result 6.42 µM (active)

// query Return AC50 (reported value) for this compound: `CC(=O)Oc1ccc(-c2cccc(C(=O)N(C)c3ccc(O)cc3)c2)cc1`
// result 22.9 µM (active)

// query Return AC50 (reported value) for this compound: `COc1ccc2cc(CCl)c(Cl)nc2c1`
// result 5.78 µM (active)

// query Return AC50 (reported value) for this compound: `C/C(=N/O)c1ccc2ccc3ccccc3c2c1`
// result 5.54 µM (active)

// query Return AC50 (reported value) for this compound: O=C1CSC(c2ccccc2[N+](=O)[O-])N1c1cccc(F)c1 (configuration not stated)
// result 0.689 µM (active)

// query Return AC50 (reported value) for this compound: `Cc1ccc(S(=O)(=O)Nc2ccc(O)c(Sc3nc[nH]n3)c2)cc1`
// result 3.31 µM (active)

###

- assay-system: UniProt P07900
- Format: functional, organism-based
Active and inactive are the calls of the source.
measurement-label: AC50

Answered examples (3):
Cc1ccc(-n2nnnc2C(Cl)c2nnnn2-c2ccc(C)cc2)cc1 : 0.635 µM (active)
CC(C)(C)c1ccc(C(=O)CC(Sc2ccc(Cl)cc2)C(=O)O)cc1 (centres undefined) : 4.71 µM (active)
CN(C)c1ccc(/C=C/c2ccc3c4ccccc4ccc3[n+]2-c2ccccc2)cc1 : 3.19 µM (active)

// query Return AC50 (reported value) for this molecule: `Cc1c(C(=O)NCCSCc2cccc(C(F)(F)F)c2)cnn1-c1ccc(Cl)cc1`
// result 7.25 µM (active)

###

- assay-system: Troponin, cardiac muscle (Homo sapiens, UniProt P19429+P45379+P63316)
- assay-comment: Fluorescence-based biochemical high throughput dose response assay for activators of the calcium sensitivity of cardiac Regulated Thin Filaments (RTF). [Related pubchem assays (depositor defined):AID493008, AID493018, AID504382, AID504383]
- Type: protein-complex assay
Calls of active or inactive are those of the source.
Allowed answers: True (active), False (inactive)

CN1CCS/C1=C/C=C1\SC(=S)N(CC(=O)O)C1=O : True
COc1ccccc1NC(=O)COC(=O)c1cnc(C)cn1 : False
CNS(=O)(=O)c1ccc(N/C=C2/C(=O)NC(=O)N(c3ccccc3)C2=O)cc1 : False

Now turn to the next molecule.
// query # outcome recorded in this test, key = `O=C(NCc1nnc(SCC(=O)N2CCCCCC2)o1)c1ccco1`
// result False

###

Recorded AC50 by entry
- assay-comment: reduction of Shn3 3'UTR-driven luciferase in osteoblasts – cell-based, Clone20 osteoblasts, firefly luciferase, cherry-picked, dose response (AID 624132);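 also: firefly luciferase luminescence from reporter carrying the Shn3 3'UTR in osteoblasts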
- Format: functional
The source made the active and inactive calls.

Answered examples (4):
CCc1ccc(OCC(=O)NC(N=C(S)Nc2ccc(Cl)cc2)C(Cl)(Cl)Cl)cc1 (stereo not given) : 4.96 µM (active)
COc1ccc(CNc2ncnc3sccc23)cc1 : 1.66 µM (active)
Nc1nc(N)c2cc(Sc3cccc(C(F)(F)F)c3)ccc2n1 : 4.87 µM (active)
CN(C)c1ccc(/C=C/c2ccc3c4ccccc4ccc3[n+]2-c2ccccc2)cc1 : < 0.26 µM (active)

// query Return AC50 (reported value) for this compound: CCCCOC(=O)c1[nH]c2c(c1C)C(=O)CC(c1cc(OC)c(OC)c(OC)c1)C2 (stereo not given)
// result 1.35 µM (active)

###

- assay-system: Protein RecA (Mycobacterium tuberculosis, UniProt P9WHJ3)
- assay-comment: Fluorescence Cell-Free Homogeneous Dose Retest to Identify Inhibitors of RecA-Intein Splicing Activity. [Related pubchem assays (depositor defined):AID2097, AID2223, AID489010, AID492950]
- Type: functional
Active and inactive are the calls of the source.
Allowed answers: 1 for active, 0 for inactive

COC(=O)c1ccc(/N=C2\C(Cl)=C(O)OC2OC(=O)c2ccccc2)cc1 (configuration not stated) : 1

// query # outcome recorded in this test, key = `COc1ccc(N(C(=O)COc2cccc(C)c2)S(=O)(=O)c2ccc(C)cc2)cc1`
// result 1

// query # outcome recorded in this test, key = `O=C(Nc1ccc(N2CCOCC2)cc1)Nc1ccc2nsnc2c1`
// result 0

###

Recorded IC50 by entry
- assay-system: Fatty acid synthase (Homo sapiens, UniProt P49327)
- assay-comment: inhibition of human FAS-TE enzyme activity – biochemical, endpoint fluorescence intensity, uHTS hits, dose response (AID 624327);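 also: fluorescence from hydrolysis of an O-methyl fluorescein acyl ester substrate by the enzyme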
- Format: functional
Activity calls are given as the source filed them.

Answered examples (3):
Cc1ccc([N+](=O)[O-])cc1NC(=O)c1ccc(C(C)(C)C)cc1 : 5.57 µM (active)
Cc1ccccc1N(CC(=O)NCc1ccc2c(c1)OCO2)C(=O)C1CSC(=O)C1 (centres undefined) : 5.85 µM (active)
CCOC(=O)[C@]12Cc3ccc(C)cc3[C@H]1N(C1CCCCC1)C(=O)c1cc(OC)ccc12 : 5.7 µM (active)

Attention now shifts to the item below.
// query Return IC50 (reported value) for this molecule: `Cc1ccc(C(=O)N/C(=C\c2cn(S(=O)(=O)N(C)C)c3ccccc23)C(=O)NCCN2CCOCC2)cc1`
// result 12.7 µM (active)

###

- assay-system: Large T antigen (Simian virus 40);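 also: Confirmatory-stage PubChem screen for compounds that inhibit SV40 T antigen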
- Format: functional, Betapolyomavirus macacae
The source made the active and inactive calls.
measurement-label: IC50

// query Return IC50 (reported value) for this molecule: `CC(=O)NCCc1c[nH]c2ccc(O)cc12`
// result 21.7 µM (active)

// query Return IC50 (reported value) for this molecule: `CN(C)c1ccc(N2CC(C)(C)C2=O)cc1`
// result 4.39 µM (active)

// query Return IC50 (reported value) for this molecule: N#CC1=C(N)C2=C(N3CCCCC3)CCCC2C1(C#N)C#N (stereo not drawn)
// result 9.99 µM (active)

// query Return IC50 (reported value) for this molecule: `Nc1ccc(Nc2nc3ccccc3[nH]2)cc1`
// result 7.8 µM (active)

// query Return IC50 (reported value) for this molecule: `O=C(CCn1c(=O)oc2cc(Cl)ccc21)Nc1ccc(O)cc1`
// result 25.2 µM (active)

// query Return IC50 (reported value) for this molecule: `O=C1NC(=O)C(=Cc2ccc(-c3ccccc3[N+](=O)[O-])o2)C(=O)N1`
// result 62.2 µM (active)

// query Return IC50 (reported value) for this molecule: `COc1cc(/C=N/NC(=O)c2cccc([N+](=O)[O-])c2)ccc1O`
// result 5.73 µM (active)

###

- assay-system: Cytochrome P450 2C19 (Homo sapiens)
- assay-comment: Cytochrome panel assay with activity outcomes. Panel member name: p450-cyp2c19 Compounds with AC50 equal or less than 10 uM are considered active
- Format: functional
- test-parameters: read-out: AC50
Recorded AC50 by entry

Answered examples (3):
O=[N+]([O-])c1cccc(/C(=N/N=C/c2ccccc2Br)C23CN4CN(CN(C4)C2)C3)c1 : 14.1 µM (inconclusive)
c1cncc(CNc2cc(-c3ccc4c(c3)OCO4)ncn2)c1 : 25.1 µM (inconclusive)
COCCCNC(=O)C1CC(=O)N(Cc2ccc(OC)cc2)C1 (stereo not drawn) : 22.4 µM (inconclusive)

Attention now shifts to the item below.
// query Return AC50 (reported value) for this compound: CC1(C)CC(=O)C2=C(C1)N(c1ccc(F)cc1)C(N)=C(C#N)C2c1cccs1 (stereo not drawn)
// result 39.8 µM (inconclusive)

###

- assay-system: UniProt:O43614
- Sequence (O43614 whole entry): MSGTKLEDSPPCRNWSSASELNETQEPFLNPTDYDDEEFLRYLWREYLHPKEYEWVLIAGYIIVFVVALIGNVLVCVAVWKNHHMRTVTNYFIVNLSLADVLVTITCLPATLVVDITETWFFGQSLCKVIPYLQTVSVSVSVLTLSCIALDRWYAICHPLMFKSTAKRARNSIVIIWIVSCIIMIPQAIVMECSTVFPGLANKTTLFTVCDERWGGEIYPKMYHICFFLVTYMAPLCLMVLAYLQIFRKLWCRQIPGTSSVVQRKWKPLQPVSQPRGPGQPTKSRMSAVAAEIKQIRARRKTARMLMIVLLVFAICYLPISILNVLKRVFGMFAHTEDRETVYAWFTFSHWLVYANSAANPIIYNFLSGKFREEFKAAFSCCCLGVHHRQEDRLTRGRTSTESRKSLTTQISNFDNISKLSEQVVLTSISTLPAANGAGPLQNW
- assay-comment: Counterscreen assay for antagonists of the orexin 1 receptor (OX1R; HCRTR1): Homogeneous Time Resolved Fluorescence (HTRF)-based cell-based dose response assay for antagonists of the orexin 2 receptor (OX2R; HCRTR2), run by assay provider.
- Type: functional
The source made the active and inactive calls.
measurement-label: IC50

Cc1noc(C)c1COC(=O)c1ccc2c(c1)S(=O)(=O)c1ccccc1C2=O : > 50 µM (inactive)
CC(=C/c1ccccc1)/C=C1/SC(N2CCOCC2)=NC1=O : 26 µM (inactive)
Nn1c(-c2cccs2)nc2sc3c(c2c1=O)CCCC3 : > 50 µM (inactive)

Attention now shifts to the item below.
// query Return IC50 (reported value) for this compound: `Cc1cc(C)n2nc(-c3cccc(Br)c3)cc2n1`
// result > 50 µM (inactive)
